test system: MDA-MB-231 breast; assay: NCI-60 one-dose screen, 48 h; details: 10 µM unless noted
This is part of a sample that, as a whole, favours compounds with a hit. Of some 83,000 tested, about 20% had one in any assay. Calls of active or inactive are those of the source. Rule for the calls: active = growth percent below 10; inactive = the rest.
Return exactly one item of active, inactive

Please review the following examples before continuing.
| Compound | Discrete label |
| --- | --- |
| C[C@@H](Oc1cc(-c2cnn(C3CC4(CCCNC4)C3)c2)cnc1N)c1c(Cl)ccc(F)c1Cl (stereo partly drawn) | active |
| Nc1nc(-c2ccnc(Cl)c2)nn1-c1nc2ccccc2s1 | inactive |
| O=C(c1ccc2ncc(-c3nc(NC4CC4)ncc3F)n2c1)N1CCOCC1 | inactive |
| Oc1ccccc1/C=N/Nc1nc2ccccc2s1 | inactive |
| N#C/C(=C\c1ccc[nH]1)c1cc2ccccc2[nH]1 | inactive |

Exam item: Given C=C(C)CCCC(C)CC#N (stereo not drawn) , state the outcome it received in this test.
Marked response: inactive

Exam item: Given O=C(Nc1ccc(F)cc1)c1ccc(C(=O)Nc2ccc(F)cc2)cc1 , state the outcome it received in this test.
Marked response: inactive

Exam item: Given COc1cc(NC(=O)COc2ccccc2)c(C(N)=O)cc1OC , state the outcome it received in this test.
Marked response: inactive

Exam item: Given Cc1ccc(-c2nnc(COc3ccc(-c4nnc(N)s4)cc3)o2)cc1 , state the outcome it received in this test.
Marked response: inactive

Exam item: Given Cc1ccc(N(CSc2ccc(Cl)cc2)CSc2ccc(Cl)cc2)cc1 , state the outcome it received in this test.
Marked response: inactive

Exam item: Given NC(=O)c1cc(I)ccc1NC(=O)COc1ccccc1 , state the outcome it received in this test.
Marked response: inactive

Exam item: Given COc1ccc(Cn2c(Br)c3c(c2-c2cc(OC)c(OC)c(OC)c2)CCc2sc(N)nc2-3)cc1 , state the outcome it received in this test.
Marked response: inactive

Exam item: Given O=S(=O)(Nc1ccc(Cl)c(Cl)c1)c1ccc(-c2cnc(C3CC3)o2)cc1 , state the outcome it received in this test.
Marked response: inactive

Exam item: Given NS(=O)(=O)c1ccc(C(=O)N/N=C(\CS(=O)(=O)c2ccccc2)c2cc3cc(Br)ccc3o2)cc1 , state the outcome it received in this test.
Marked response: inactive

Exam item: Given COc1ccc(C2SC(C)C(=O)N2CCc2cccs2)cc1OC (stereo not drawn) , state the outcome it received in this test.
Marked response: inactive

Exam item: Given CCCCCCCCCCCCCCNc1nc(CO)ncc1-c1ccc(C(F)(F)F)cc1 , state the outcome it received in this test.
Marked response: inactive

Exam item: Given Cc1nn2c(-c3nc4ccc(Cl)cc4[nH]3)c(-c3ccc(F)cc3)nc2s1 , state the outcome it received in this test.
Marked response: inactive

Exam item: Given CC1CCCCN1S(=O)(=O)c1ccc(CN=C=S)cc1 (stereo not drawn) , state the outcome it received in this test.
Marked response: inactive

Exam item: Given Cc1ccccc1-n1nnc(C(=O)Nc2nc(-c3ccccc3)c(-c3ccccc3)s2)c1C , state the outcome it received in this test.
Marked response: inactive

Exam item: Given COc1cccc(Nc2nc(NCCO)c3ccccc3n2)c1 , state the outcome it received in this test.
Marked response: inactive

Exam item: Given COc1cccc(C2C3=C(COC3=O)N(CCO)c3cc4c(cc32)OCO4)c1 (stereo not drawn) , state the outcome it received in this test.
Marked response: inactive

Exam item: Given CC(=O)c1cc(C)c(OC(=O)c2ccccc2)c(C)c1 , state the outcome it received in this test.
Marked response: inactive

Exam item: Given O=C1/C(=C/c2ccccc2F)CNC/C1=C\c1ccccc1F , state the outcome it received in this test.
Marked response: active
